Listing of recorded IC50 by entry.
# Tested on: MCF7
# experimental.protocol: Cytotoxicity against human MCF7 cells assessed as reduction in cell growth incubated for 72 hrs by MTT assay
# Assay type: functional, cell-based
# reported.conditions: MCF7, 72 h

Sample answers from the record:
smiles.representation	IC50
Cc1ccnc(/C(N)=N/NC(=S)N2CCOCC2)c1	> 100 µM
Cc1cccc(/C(N)=N/NC(=S)N2CCSCC2)n1	> 100 µM

Let us move to another entry and its IC50.
Prompt: Form field: reported IC50 of Cc1cccc(/C(N)=N/NC(=S)N2CCN(c3ccccn3)CC2)n1
Completion: > 100 µM

* * *

# System: HeLa
# experimental.protocol: Cytotoxicity against human HeLa cells assessed as reduction in cell growth at 3 uM incubated for 72 hrs by MTT assay relative to control
# Assay type: functional
# reported.conditions: read-out: GI
Output criterion met for inhibition of growth at 3 µM not less than 40%; output criterion not met otherwise.

Here are 2 compounds together with their reported answers.
smiles.representation	subject.of.test	class.assignment
N/C(=N\NC(=S)N1CCCCCC1)c1ccc(F)cn1	HeLa	criterion met
N/C(=N\NC(=S)N1CCN(c2ccccn2)CC1)c1ccccn1	HeLa	criterion not met

Prompt: Assess whether reported inhibition of growth at 3 µM for Cc1ccnc(/C(N)=N/NC(=S)N2CCCC2)c1 sits at 40% or higher.
Completion: criterion met

Prompt: Assess whether reported inhibition of growth at 3 µM for N/C(=N\NC(=S)N1CCCC1)c1ccccn1 sits at 40% or higher.
Completion: criterion not met

Prompt: Assess whether reported inhibition of growth at 3 µM for Cc1ccnc(/C(N)=N/NC(=S)N2CCN(c3ccccn3)CC2)c1 sits at 40% or higher.
Completion: criterion met

Cited source for all entries: ChEMBL document CHEMBL4387724
